- Tested on: human red blood cells
- measurement-notes: Cytotoxicity: hemolysis of human red blood cells
- Assay type: cell-based
No end group written: not given here.
// reported Hemolytic activity (% ± SD) at 16 µM per item
value-type: Hemolytic activity (% ± SD) at 16 µM (%)

- ANRLLEAYKMLLKFLGNLR-NH2 [Gr02]: 7.01
- GSLHGFMYKYLKNMVLNLF-NH2 [Tc06]: 0.01
- GFKDLLKGAAKALVKTVLF-NH2 [Asc-8, Ascaphin-8, reference compound]: 28.10
- GSLHGFMYKYLKTLVLRLY-NH2 [Zm01]: 0.66
- FFYNVIKIYGNMAGRISK-NH2 [Cs03]: 0.21
- GFKLGRKLVKVFKWII-NH2 [Gr01]: 3.82
